We begin with a simple list: items and their reported IC50.
# System: 958667-338-R-J2-PDC tumor spheroids viability
# assay-text: Anticancer human tumor 958667-338-R-J2-PDC patient-derived colon adenocarcinoma cell line growth inhibition [PI3K]
# run-conditions: curve of first compound; second compound 0.316 µM; spheroids with HUVEC and MSC

Answered examples (4):
>>> result("Cn1ncc(Cl)c1-c1cc(C(=O)NC(CN)Cc2cccc(F)c2)sc1Cl (stereo not given) + COc1c(OCCCN2CCOCC2)ccc2c3n(c(=NC(=O)c4cnc(N)nc4)nc12)CCN3")
"< 31.6 nM"
>>> result("CC(C)n1nc(-c2ccc3oc(N)nc3c2)c2c(N)ncnc21 + CC(Nc1ccc2c(c1)OCCn1cc(N3C(=O)OCC3C(F)F)nc1-2)C(N)=O")
"28.7 nM"
>>> result("C=CC(=O)N1CCN(c2nc(=O)n(-c3c(C)ccnc3C(C)C)c3nc(-c4c(O)cccc4F)c(F)cc23)C(C)C1 (stereo not given) + CC(Nc1ccc2c(c1)OCCn1cc(N3C(=O)OCC3C(F)F)nc1-2)C(N)=O")
"> 10000 nM"
>>> result("CNC(=O)c1ccc(N2C(=S)N(c3ccc(C#N)c(C(F)(F)F)c3)C(=O)C2(C)C)cc1F + CC(Nc1ncnc2nc[nH]c12)c1cc2cccc(Cl)c2c(=O)n1-c1ccccc1")
"> 10000 nM"

The record that follows has no IC50 shown yet.
Incoming: Given the entry C=CC(=O)N1CCN(c2nc(=O)n(-c3c(C)ccnc3C(C)C)c3nc(-c4c(O)cccc4F)c(F)cc23)C(C)C1 (stereo not given) + COc1c(OCCCN2CCOCC2)ccc2c3n(c(=NC(=O)c4cnc(N)nc4)nc12)CCN3 , report its measured IC50.
Outgoing: < 31.6 nM

* * *

# Tested on: 958667-338-R-J2-PDC tumor spheroids viability
# assay-text: Anticancer human tumor 958667-338-R-J2-PDC cell line growth inhibition [PI3K];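 further: spheroids exposed to compounds for seven days before readout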
# run-conditions: second compound 0.316 µM; first compound 10 µM; stronger effect = lower value; spheroids with HUVEC and MSC
attribute-measured: viability, T/C (%)
All answers are understood in %, so give the number only.

Answered examples (2):
>>> readout_number("C[C@@H](NC(=O)c1ncnc(N)c1Cl)c1ncc(C(=O)Nc2cc(C(F)(F)F)c(Cl)cn2)s1 + CC(Nc1ccc2c(c1)OCCn1cc(N3C(=O)OCC3C(F)F)nc1-2)C(N)=O")
80
>>> readout_number("Cn1nccc1Nc1nccc(-c2ccn(C(CO)c3ccc(Cl)c(F)c3)c(=O)c2)n1 (stereo not drawn) + Cc1nc(NC(=O)N2CCCC2C(N)=O)sc1-c1ccnc(C(C)(C)C(F)(F)F)c1")
67.4

The record that follows has no viability, T/C shown yet.
Incoming: Given the entry C=CC(=O)N1CCN(c2nc(=O)n(-c3c(C)ccnc3C(C)C)c3nc(-c4c(O)cccc4F)c(F)cc23)C(C)C1 (stereo not drawn) + COc1c(OCCCN2CCOCC2)ccc2c3n(c(=NC(=O)c4cnc(N)nc4)nc12)CCN3 , report its measured viability, T/C.
Outgoing: 46.1

* * *

# System: 958667-338-R-J2-PDC tumor spheroids viability
# assay-text: Anticancer human tumor 958667-338-R-J2-PDC cell line growth inhibition [PI3K];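 further: spheroids exposed to compounds for seven days before readout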
# run-conditions: second compound 0.0316 µM; first compound 0.316 µM; stronger effect = lower value; spheroids with HUVEC and MSC
We begin with a simple list: items and their reported viability, T/C.
All answers are understood in %, so give the number only.

Answered examples (2):
>>> readout_number("Cn1ncc(Cl)c1-c1cc(C(=O)NC(CN)Cc2cccc(F)c2)sc1Cl (stereo not drawn) + Cc1nc(NC(=O)N2CCCC2C(N)=O)sc1-c1ccnc(C(C)(C)C(F)(F)F)c1")
89.2
>>> readout_number("CC1(C)CCC(CN2CCN(c3ccc(C(=O)NS(=O)(=O)c4ccc(NCC5CCOCC5)c([N+](=O)[O-])c4)c(Oc4cnc5[nH]ccc5c4)c3)CC2)=C(c2ccc(Cl)cc2)C1 + CC(Nc1ccc2c(c1)OCCn1cc(N3C(=O)OCC3C(F)F)nc1-2)C(N)=O")
86

Incoming: Given the entry CC(C)NCC(C(=O)N1CCN(c2ncnc3c2C(C)CC3O)CC1)c1ccc(Cl)cc1 (stereo not drawn) + CC(Nc1ncnc2nc[nH]c12)c1cc2cccc(Cl)c2c(=O)n1-c1ccccc1 , report its measured viability, T/C.
Outgoing: 72.1

* * *

# Test system: 958667-338-R-J2-PDC tumor spheroids viability
# assay-text: Anticancer human tumor 958667-338-R-J2-PDC cell line growth inhibition [PI3K];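 further: spheroids exposed to compounds for seven days before readout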
# run-conditions: curve of first compound; second compound 0.1 µM; spheroids with HUVEC and MSC
pIC50: −log10 of the molar value.
attribute-measured: pIC50

>>> readout_number("Cn1ncc(Cl)c1-c1cc(C(=O)NC(CN)Cc2cccc(F)c2)sc1Cl (stereo unspecified) + Cc1nc(NC(=O)N2CCCC2C(N)=O)sc1-c1ccnc(C(C)(C)C(F)(F)F)c1")
5.69

1 = CC(C)n1nc(-c2ccc3oc(N)nc3c2)c2c(N)ncnc21 + CC(Nc1ccc2c(c1)OCCn1cc(N3C(=O)OCC3C(F)F)nc1-2)C(N)=O
2 = CC(Cn1ccc(-c2ccc(C#N)c(Cl)c2)n1)NC(=O)c1cc(C(C)O)[nH]n1 (stereo unspecified) + COc1c(OCCCN2CCOCC2)ccc2c3n(c(=NC(=O)c4cnc(N)nc4)nc12)CCN3
Incoming: So which one has the bigger pIC50 here, 1 or 2 ? State your choice using its label.
Outgoing: 1

* * *

# Tested on: 958667-338-R-J2-PDC tumor spheroids viability
# assay-text: Anticancer human tumor 958667-338-R-J2-PDC cell line growth inhibition [PI3K];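 further: spheroids exposed to compounds for seven days before readout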
# run-conditions: second compound 0.01 µM; first compound 0.0316 µM; stronger effect = lower value; spheroids with HUVEC and MSC
attribute-measured: viability, T/C (%)
All answers are understood in %, so give the number only.

Answered examples (2):
>>> readout_number("Cn1ncnc1[C@H]1c2n[nH]c(=O)c3cc(F)cc(c23)N[C@@H]1c1ccc(F)cc1 + CC(Nc1ccc2c(c1)OCCn1cc(N3C(=O)OCC3C(F)F)nc1-2)C(N)=O")
85.7
>>> readout_number("C=CC(=O)N1CCN(c2nc(=O)n(-c3c(C)ccnc3C(C)C)c3nc(-c4c(O)cccc4F)c(F)cc23)C(C)C1 (stereo not given) + COc1c(OCCCN2CCOCC2)ccc2c3n(c(=NC(=O)c4cnc(N)nc4)nc12)CCN3")
103

Incoming: Given the entry CC1(C)CCC(Nc2ncc(C(F)(F)F)c(-c3c[nH]c4c(P(C)(C)=O)c(C#N)ccc34)n2)CN1 (stereo not given) + COc1c(OCCCN2CCOCC2)ccc2c3n(c(=NC(=O)c4cnc(N)nc4)nc12)CCN3 , report its measured viability, T/C.
Outgoing: 105

Incoming: Now the molecule C=CC(=O)N1CCN(c2nc(=O)n(-c3c(C)ccnc3C(C)C)c3nc(-c4c(O)cccc4F)c(F)cc23)C(C)C1 (stereo not given) + CC(Nc1ccc2c(c1)OCCn1cc(N3C(=O)OCC3C(F)F)nc1-2)C(N)=O
Outgoing: 88.2

Incoming: Now the molecule CC(=O)c1c(C)c2cnc(Nc3ccc(N4CCNCC4)cn3)nc2n(C2CCCC2)c1=O + CC(Nc1ccc2c(c1)OCCn1cc(N3C(=O)OCC3C(F)F)nc1-2)C(N)=O
Outgoing: 107

* * *

# Test system: 958667-338-R-J2-PDC tumor spheroids viability
# assay-text: Anticancer human tumor 958667-338-R-J2-PDC cell line growth inhibition [PI3K];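 further: spheroids exposed to compounds for seven days before readout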
# run-conditions: second compound 0.01 µM; first compound 0.1 µM; stronger effect = lower value; spheroids with HUVEC and MSC
attribute-measured: viability, T/C (%)
All answers are understood in %, so give the number only.

Answered examples (2):
>>> readout_number("Cn1nccc1Nc1nccc(-c2ccn(C(CO)c3ccc(Cl)c(F)c3)c(=O)c2)n1 (stereo not drawn) + COc1c(OCCCN2CCOCC2)ccc2c3n(c(=NC(=O)c4cnc(N)nc4)nc12)CCN3")
100
>>> readout_number("CC(=O)c1c(C)c2cnc(Nc3ccc(N4CCNCC4)cn3)nc2n(C2CCCC2)c1=O + CC(Nc1ccc2c(c1)OCCn1cc(N3C(=O)OCC3C(F)F)nc1-2)C(N)=O")
83.8

Incoming: Given the entry Cn1nccc1Nc1nccc(-c2ccn(C(CO)c3ccc(Cl)c(F)c3)c(=O)c2)n1 (stereo not drawn) + CC(Nc1ccc2c(c1)OCCn1cc(N3C(=O)OCC3C(F)F)nc1-2)C(N)=O , report its measured viability, T/C.
Outgoing: 104

* * *

# Test system: 958667-338-R-J2-PDC tumor spheroids viability
# assay-text: Anticancer human tumor 958667-338-R-J2-PDC cell line growth inhibition [PI3K];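 further: spheroids exposed to compounds for seven days before readout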
# run-conditions: second compound 1 µM; first compound 0.0316 µM; stronger effect = lower value; spheroids with HUVEC and MSC
# Source text: Combinatorial screen of targeted agents with the PI3K inhibitors inavolisib, alpelisib, duvelisib, and copanlisib in multi-cell type tumor spheroids A high-throughput screen of multi-cell type tumor spheroids was designed to identify active combinations of targeted small molecules and PI3K pathway inhibitors. […] Compounds. […] If the clinical Cmax for an agent had not been determined, the highest concentration tested was 10 microM. […]
We begin with a simple list: items and their reported viability, T/C.
All answers are understood in %, so give the number only.

>>> readout_number("C#Cc1c(F)ccc2cc(O)cc(-c3ncc4c(N5CC6CCC(C5)N6)nc(OCC56CCCN5CC(F)C6)nc4c3F)c12 (configuration not stated) + CC(Nc1ncnc2nc[nH]c12)c1cc2cccc(Cl)c2c(=O)n1-c1ccccc1")
77.4
>>> readout_number("C=CC(=O)N1CCN(c2nc(=O)n(-c3c(C)ccnc3C(C)C)c3nc(-c4c(O)cccc4F)c(F)cc23)C(C)C1 (configuration not stated) + CC(Nc1ncnc2nc[nH]c12)c1cc2cccc(Cl)c2c(=O)n1-c1ccccc1")
108
>>> readout_number("CC1(C)CCC(Nc2ncc(C(F)(F)F)c(-c3c[nH]c4c(P(C)(C)=O)c(C#N)ccc34)n2)CN1 (configuration not stated) + Cc1nc(NC(=O)N2CCCC2C(N)=O)sc1-c1ccnc(C(C)(C)C(F)(F)F)c1")
103
>>> readout_number("Cn1ncc(Cl)c1-c1cc(C(=O)NC(CN)Cc2cccc(F)c2)sc1Cl (configuration not stated) + CC(Nc1ncnc2nc[nH]c12)c1cc2cccc(Cl)c2c(=O)n1-c1ccccc1")
95.6
>>> readout_number("Cn1ncnc1[C@H]1c2n[nH]c(=O)c3cc(F)cc(c23)N[C@@H]1c1ccc(F)cc1 + COc1c(OCCCN2CCOCC2)ccc2c3n(c(=NC(=O)c4cnc(N)nc4)nc12)CCN3")
22.5

The record that follows has no viability, T/C shown yet.
Incoming: Given the entry CC(Cn1ccc(-c2ccc(C#N)c(Cl)c2)n1)NC(=O)c1cc(C(C)O)[nH]n1 (configuration not stated) + CC(Nc1ncnc2nc[nH]c12)c1cc2cccc(Cl)c2c(=O)n1-c1ccccc1 , report its measured viability, T/C.
Outgoing: 119

// data source = PubChem BioAssay AID1963963
